From: ChEMBL document CHEMBL4028908

Entries annotated with measured bioavailability
Assay: Oral bioavailability in cynomolgus monkey at 0.5 mg/kg
Type: ADME, organism-based, Macaca fascicularis
Conditions: in vivo
// return numeric value only (unit: %, not printed)

[
  {
    "Record Smiles": "N#Cc1ccc(Nc2nn([C@H]3COCC[C@@H]3C#N)cc2C(N)=O)cc1",
    "bioavailability [%]": 18
  }
]

Now turn to the next molecule.
Q. Look up bioavailability of `COc1cc(Nc2nn([C@H]3COCC[C@@H]3C#N)cc2C(N)=O)ccc1Cl` and report it.
A. 32

###

Experiment: Oral bioavailability in dog at 0.5 mg/kg
Type: ADME, organism-based, Canis lupus familiaris
Conditions: in vivo
Readout: bioavailability

Q. For the compound `CN(C)[C@H]1CC[C@H](n2cc(C(N)=O)c(Nc3ccc(Cl)cc3)n2)[C@@H](C#N)C1` , give its measured bioavailability value.
A. 42%

Q. Name the recorded bioavailability of the compound listed here: `COc1cc(Nc2nn([C@H]3COCC[C@@H]3C#N)cc2C(N)=O)ccc1Cl`
A. 29%

Q. Give the reported bioavailability for this compound. `N#Cc1ccc(Nc2nn([C@H]3COCC[C@@H]3C#N)cc2C(N)=O)cc1`
A. 51%

###

Listing of entries alongside the reported clearance.
Assay: Plasma clearance in dog at 0.25 mg/kg, iv or 0.5 mg/kg, po
Format: ADME, organism-based, Canis lupus familiaris
Field format: number, assumed mL/min/kg, no unit text.

[
  {
    "Record Smiles": "CN(C)[C@H]1CC[C@H](n2cc(C(N)=O)c(Nc3ccc(Cl)cc3)n2)[C@@H](C#N)C1",
    "clearance [mL/min/kg]": 21
  },
  {
    "Record Smiles": "COc1cc(Nc2nn([C@H]3COCC[C@@H]3C#N)cc2C(N)=O)ccc1Cl",
    "clearance [mL/min/kg]": 14
  }
]

# evaluate next
Q. Output measured clearance for this item: `N#Cc1ccc(Nc2nn([C@H]3COCC[C@@H]3C#N)cc2C(N)=O)cc1`
A. 12

###

Assay: Half life in dog at 0.25 mg/kg, iv or 0.5 mg/kg, po
Type: ADME, organism-based, Canis lupus familiaris
Conditions: in vivo
Readout: half-life (h)
API: value field is a number in h; no unit string.

[
  {
    "Record Smiles": "N#Cc1ccc(Nc2nn([C@H]3COCC[C@@H]3C#N)cc2C(N)=O)cc1",
    "half-life / h": 2.6
  }
]

Turning now to a further record.
Q. Determine from records and report half-life for `COc1cc(Nc2nn([C@H]3COCC[C@@H]3C#N)cc2C(N)=O)ccc1Cl`
A. 1.1

###

Test: Oral bioavailability in rat at 1 mg/kg
Type: ADME, organism-based
Settings: in vivo
Readout: bioavailability (%)
// units = %; emit number, no label

[
  {
    "Record Smiles": "N#Cc1ccc(Nc2nn([C@H]3COCC[C@@H]3C#N)cc2C(N)=O)cc1Cl",
    "Numeric Readout": 23
  },
  {
    "Record Smiles": "N#C[C@H]1CCOC[C@@H]1n1cc(C(N)=O)c(Nc2cc(F)c3nccc(Cl)c3c2)n1",
    "Numeric Readout": 19
  },
  {
    "Record Smiles": "N#C[C@H]1C[C@@H](O)CC[C@@H]1n1cc(C(N)=O)c(Nc2ccc(Cl)cc2)n1",
    "Numeric Readout": 10
  }
]

Q. Find the measured bioavailability of `Cn1cc(-c2ccc(Nc3nn([C@H]4COCC[C@@H]4C#N)cc3C(N)=O)cc2)cn1` and report it.
A. 18

Q. For the compound `N#C[C@H]1CCOC[C@@H]1n1cc(C(N)=O)c(Nc2ccc(OC(F)F)cc2)n1` , give its reported bioavailability.
A. 42

Q. Specify reported bioavailability for the compound shown: `N#C[C@H]1CCOC[C@@H]1n1cc(C(N)=O)c(Nc2ccc(Cl)cc2)n1`
A. 71

Q. Name the recorded bioavailability of the compound listed here: `N#C[C@H]1CCOC[C@@H]1n1cc(C(N)=O)c(Nc2ccccc2)n1`
A. 79

Q. # return recorded bioavailability for entry `COc1cc(Nc2nn([C@H]3COCC[C@@H]3C#N)cc2C(N)=O)ccc1Cl`
A. 47

Q. Please look at this compound and report its bioavailability: `CN(C)[C@H]1CC[C@H](n2cc(C(N)=O)c(Nc3ccc(Cl)cc3)n2)[C@@H](C#N)C1`
A. 16
